Origin of measurements: patent US20150368338A1

target: T1, IFN-αJ1 (human, UniProt P01567 24-189); test: ProteOn, one antigen concentration
T1 construct: also called IFN-α7; alpha J1
Measured Kd by item
# unit: nM | format: bare number

[[record]]
binder = "IFWM3360 (antibody, V domains shown, VH IFWH624, VL IFWL1048; converted mAb; also called IFWB3095) VH: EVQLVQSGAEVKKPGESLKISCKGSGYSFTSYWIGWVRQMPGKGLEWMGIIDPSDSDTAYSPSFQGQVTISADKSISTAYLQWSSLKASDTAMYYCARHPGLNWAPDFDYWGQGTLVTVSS VL: DIQMTQSPSSLSASVGDRVTITCRASQSIDGALNWYQQKPGKAPKLLIYFASSLQSGVPSRFSGSGSGTDFTLTISSLQPEDFATYYCQQAYDFPLTFGQGTKVEIK"
test_value = 0.174


For the binder IFWM3351 (antibody, V domains shown, VH IFWH624, VL IFWL1010; converted mAb; also called IFWB3086) VH: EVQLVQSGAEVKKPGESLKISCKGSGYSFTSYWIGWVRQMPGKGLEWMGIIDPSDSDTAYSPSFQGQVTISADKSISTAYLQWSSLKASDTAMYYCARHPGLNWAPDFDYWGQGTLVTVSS VL: DIQMTQSPSSLSASVGDRVTITCRASQSIDGALNWYQQKPGKAPKLLIYFASSLQSGVPSRFSGSGSGTDFTLTISSLQPEDFATYYCQQSFDFPLTFGQGTKVEIK , what Kd is on record? 0.14

Please do the same for IFWM3301 (antibody, V domains shown, VH IFWH591, VL IFWL983; converted mAb; also called IFWB3036) VH: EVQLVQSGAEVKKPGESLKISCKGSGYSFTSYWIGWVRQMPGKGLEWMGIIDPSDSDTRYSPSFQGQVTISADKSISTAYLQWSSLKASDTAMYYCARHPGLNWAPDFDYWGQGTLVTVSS VL: DIQMTQSPSSLSASVGDRVTITCRASQSIDGSLNWYQQKPGKAPKLLIYFASSLQSGVPSRFSGSGSGTDFTLTISSLQPEDFATYYCQQSYDFPLTFGQGTKVEIK as well. 0.074

Please do the same for IFWM3291 (antibody, V domains shown, VH IFWH591, VL IFWL999; converted mAb; also called IFWB3026) VH: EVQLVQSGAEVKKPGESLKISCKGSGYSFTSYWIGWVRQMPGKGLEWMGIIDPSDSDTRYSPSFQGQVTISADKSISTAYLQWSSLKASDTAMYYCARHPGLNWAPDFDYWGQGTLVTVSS VL: DIQMTQSPSSLSASVGDRVTITCRASQSIDEFLNWYQQKPGKAPKLLIYFASSLQSGVPSRFSGSGSGTDFTLTISSLQPEDFATYYCQQAHSFPLTFGQGTKVEIK as well. 0.122

Please do the same for IFWM3305 (antibody, V domains shown, VH IFWH591, VL IFWL998; converted mAb; also called IFWB3040) VH: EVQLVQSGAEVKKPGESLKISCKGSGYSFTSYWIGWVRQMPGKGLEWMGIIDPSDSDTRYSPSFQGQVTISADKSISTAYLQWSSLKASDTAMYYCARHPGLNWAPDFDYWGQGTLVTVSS VL: DIQMTQSPSSLSASVGDRVTITCRASQSISKFLNWYQQKPGKAPKLLIYFASSLQSGVPSRFSGSGSGTDFTLTISSLQPEDFATYYCQQSNTLPFTFGQGTKVEIK as well. 0.154

Please do the same for IFWM3336 (antibody, V domains shown, VH IFWH591, VL IFWL1085; converted mAb; also called IFWB3071) VH: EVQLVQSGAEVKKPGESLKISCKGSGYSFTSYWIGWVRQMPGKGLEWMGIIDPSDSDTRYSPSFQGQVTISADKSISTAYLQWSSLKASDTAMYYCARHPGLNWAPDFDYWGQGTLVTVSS VL: DIQMTQSPSSLSASVGDRVTITCRASQSIRNNYLNWYQQKPGKAPKLLIYAASSLQSGVPSRFSGSGSGTDFTLTISSLQPEDFATYYCQQGYDTPLTFGQGTKVEIK as well. 0.11

Please do the same for IFWM3342 (antibody, V domains shown, VH IFWH624, VL IFWL992; converted mAb; also called IFWB3077) VH: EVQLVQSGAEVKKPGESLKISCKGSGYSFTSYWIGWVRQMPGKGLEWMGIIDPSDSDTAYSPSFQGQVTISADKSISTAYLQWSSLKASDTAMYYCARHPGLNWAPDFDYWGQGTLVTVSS VL: DIQMTQSPSSLSASVGDRVTITCRASQSIGSFLNWYQQKPGKAPKLLIYFASSLQSGVPSRFSGSGSGTDFTLTISSLQPEDFATYYCQQSYSIPITFGQGTKVEIK as well. 0.269
